# assay details: soluble fraction after stress (log2 fold change); higher = more stays soluble; pooled small domains, quantitative proteomics;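 also: 20 min heating vs room temperature control held 20 min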
# condition description: stress: 75 degC
// map soluble fraction (log2) onto a label; ranges A = under -0.7, B = from -0.7 up to -0.1, C = -0.1 and over

Ask: # bin lookup: classify `HMLPDHAPITMRQLAMLHVAKNKLDLTDEDYRSLLLLYGGVESSKQLNQEGLRRVLDRFKELGFEP` by its soluble fraction (log2)
Result: B

Ask: For the record `HMNEMIFNQKKIGQFFMNPETNSPMIYPLELGHKMKIIELKNGWYNVTDEKTGLNGWVKEEDFGVTKPLDS` , report the class its soluble fraction (log2) corresponds to.
Result: B

Ask: Record `HMDAIIVPSVLKMKPFEAEEKLSALGLRMKINDTVYIDNMKPGVIVEQSPTAEEDVKTDRVIYVIVNA` — which class?
Result: B

Ask: Assign a bin to `HMAGTWQDQGNGQWKYQNDDGSYATGWIEDSGKSYYLDANGIMLANTTTPDGKQVGPDGALIP`
Result: B

Ask: Categorize the following entry: `HMDLFLVYQFIRRLATPFTEWKAHELGIIDDKGVQLKKRRDFTTREEKDAYGIFDIMITKLKRLIEKV`
Result: C

Ask: Tag the class for `HMGVEVEVPNVKGKLVADAEYELGLAQLTPVRTDSAYNRNLPPGTVLEQLPASGSHVKEGREIYLTINST`
Result: C

Ask: Lab log: `HMFVNADEIAKGLSPFNPSSVAIEAGRLMLKRIGELLSAGVSFSVETTLSTRSYINLIQQAQNQGYSVSL` — assign soluble fraction (log2) category
Result: C

Ask: Please report the category associated with `HMGPVPLASAADMEKFYSHLQQVLDEVDFKDRTGSGHLMARLRRLFQRTVLDQNEINILRGILMAVQGRR` , nothing else.
Result: A

Ask: Determine which band this sequence sits in: `HMEIVSTEEKIKRAAEQVFLLRGLEGARMQEIADVAGINKAMLHYYFRNKETLFDVILSEKL`
Result: A

Ask: For the record `HMSAPAKKPKIKVDLSKVHAGTIVRHKGYGLGQVKGIDGAIIVVTFDGVDKKFQFPGGFENGFLFLTED` , report the class its soluble fraction (log2) corresponds to.
Result: A

Ask: Sort `HMDFNDPTMEKSLVELPAMSNSTLRDLSENNIKKLEELAEMSVGELMDIASKISESDASALIMEARKPWF` into one of the categories.
Result: B

Ask: Form field 'band' for `HMNTPHLTPREREVLKGIVDGLINKEIAARMGVSVATVITHRNNLTEKLGTRSVSALTIFAVMHGIVR`
Result: A

Ask: Each sequence maps to one class by soluble fraction (log2). Which class for `HMGPAYEKIVANGQTFYRYNVKKGEGLMAVSRTFNVSVNDILKYNPSAASGLKDGQELLIPVIDDA` ?
Result: C

Ask: Consider `HMKLNETIAEARKRKGLTQEQLAQKLYVTRQAVSRWERGEVVPGIDMLKLIAITLEEPIVHLL` . To which soluble fraction (log2) class does it belong?
Result: A

Ask: Which soluble fraction (log2) category applies to `HMQQIEIEEPITVKNLSAVAGLKASEIIAKLMKLGVMSTINQVMERQHAEEIAGEYGFELVVK` here?
Result: B

Ask: Categorize the following entry: `HMDFSENEPVTVRVLSILKNNTIRIAVKGAVLQAQTALSQDIREGAFLLMRVHITDNTVVLTPY`
Result: C
